# Test system: immature embryos of modified morning glory "aosakaikaryuubaseisaisakibotan"
# Protocol: Embryoid body induction from cultured immature embryos with different phytohormones
# Assay type: cell-based, Ipomoea nil
# Assay setup: immature embryos cultured as in Example 1A (MS medium, 60 g/l sucrose, 25° C., 2000 lux; NAA 3 mg/l), phytohormone varied
Endpoint label: Number of embryoid bodies formed per immature embryo
# answer = number (no unit)

Nc1c(Cl)c(Cl)nc(C(=O)O)c1Cl    0
O=C(O)COc1ccc(F)cc1    0
O=C(O)COc1ccc(Cl)cc1Cl    0

Challenge: State its Number of embryoid bodies formed per immature embryo: O=C(O)Cc1cccc2ccccc12
Response given: 10
